- Test system: PC-3 prostate
- Test Name: NCI-60 one-dose screen, 48 h
- Reported Conditions: 10 µM unless noted
About 83,000 compounds went through this panel and 20% of them were active in at least one assay; those are over-represented in the sample as a whole. The source made the active and inactive calls. How the source made its calls: active means growth percent below 10; inactive means the rest.
Output constraint: value belongs to 1 for active, -1 for inactive

Please review the entries below; each comes with its answer.
* Cc1cc(N2CCCCC2)cc(C)c1-c1csc(NC(=O)c2ccncc2)n1 | -1
* c1csc(-c2ccc(CNc3c4ccccc4nc4ccccc34)cc2)c1 | -1
* O=C(Nc1ccc(Oc2cccc(Cl)c2)c(Cl)c1)c1cnccn1 | -1
* Cc1cc(=O)oc2cc(OCc3nn4c(Nc5nc6ccccc6s5)c(-c5ccccc5)nc4s3)ccc12 | -1
* CC(C)=CCC[C@](C)(O)[C@H]1CC[C@]2(C)[C@@H]1CC[C@@H]1[C@@]3(C)C/C(=C/c4ccco4)C(=O)C(C)(C)[C@@H]3CC[C@]12C | -1

Exercise: Status in this test for CC(C)=CC(=O)OCC(=O)O[C@@H]1C[C@]2(C(C)C)O[C@@]1(C)[C@@H]1CC[C@@H](C)[C@H]1[C@@H]2OC(=O)/C=C/c1ccccc1 ?
Solution: -1

Exercise: Status in this test for CN1CCc2nc3sc(C(N)=O)c(N)c3c(-c3cccs3)c2C1 ?
Solution: -1
